Reference source: patent US20240206463A1

# Test Method Notes: Diluents lowering the melting point of pelargonic acid: visual appearance (crystal/clear) of pelargonic acid/diluent blends at low temperature
# Condition Summary: pelargonic acid 65 wt % + diluent 35 wt %
Experimental Readout: appearance at 0° C.

COC(=O)c1ccccc1O [Methyl salicylate] = Clear
CCCCOC(C)=O [Butyl Acetate] = Clear
C=C(C)[C@H]1CC=C(C)CC1 = Clear

----------
# Test Method Notes: Diluents lowering the melting point of pelargonic acid: visual appearance (crystal/clear) of pelargonic acid/diluent blends at low temperature
# Condition Summary: pelargonic acid 70 wt % + diluent 30 wt %
Experimental Readout: appearance at 0° C.

Worked examples, 4 molecules total:
CCCCOC(C)=O [Butyl Acetate] = Clear
CCCCC(CC)CO (stereo not shown) = Clear
CCCCCCCCOC(=O)C(C)O (stereo not shown) [Octyl lactate] = Crystal
CCCCC(=O)O = Clear

Query: I have this molecule here, C=C(C)[C@H]1CC=C(C)CC1 , and I need its recorded appearance at 0° C..
Result: Clear

Query: // repeat for COC(=O)c1ccccc1O [Methyl salicylate] and report
Result: Crystal

Query: // repeat for CCCCC(CC)C(=O)O (stereo not shown) and report
Result: Clear
